Source: patent US8674095B2

Measured pIC50 on PAK1 (Homo sapiens, UniProt Q13153) follows.
Sequence (Q13153 whole entry): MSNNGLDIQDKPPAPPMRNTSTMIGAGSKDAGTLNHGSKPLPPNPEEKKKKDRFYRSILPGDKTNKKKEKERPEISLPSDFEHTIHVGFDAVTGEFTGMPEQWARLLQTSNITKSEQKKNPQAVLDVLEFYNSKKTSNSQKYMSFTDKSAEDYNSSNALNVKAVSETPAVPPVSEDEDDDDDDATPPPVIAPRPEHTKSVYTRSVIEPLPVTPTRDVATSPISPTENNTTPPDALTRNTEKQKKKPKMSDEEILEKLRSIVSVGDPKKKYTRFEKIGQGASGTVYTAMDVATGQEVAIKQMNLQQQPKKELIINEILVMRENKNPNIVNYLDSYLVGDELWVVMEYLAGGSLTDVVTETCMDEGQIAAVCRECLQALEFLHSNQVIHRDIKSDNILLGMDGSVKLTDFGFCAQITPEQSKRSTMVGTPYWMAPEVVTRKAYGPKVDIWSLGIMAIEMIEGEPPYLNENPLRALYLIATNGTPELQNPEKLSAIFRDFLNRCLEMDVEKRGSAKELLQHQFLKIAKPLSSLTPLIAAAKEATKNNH
pIC50: −log10 of the molar value.

Q. pIC50 of "CN1CCN(c2ccc(Nc3ncc4ccc(=O)n(Cc5c(Cl)cccc5Cl)c4n3)cc2)CC1" on PAK1 (Homo sapiens, UniProt Q13153)?
A. > 6.00

Q. Now try "CN1CCN(c2ccc(Nc3ncc4ccc(=O)n(Cc5ccccc5Br)c4n3)cc2)CC1" .
A. > 6.00

Q. Then "CN1CCN(c2ccc(Nc3ncc4ccc(=O)n(Cc5c(F)cccc5F)c4n3)cc2)CC1" ?
A. > 6.00

Q. Same for "CN1CCN(c2ccc(Nc3nccc(-c4ccc(NCCN5CCCCC5)nc4)n3)cc2)CC1"
A. 5.00 to 6.00

Q. Would you mind doing "Cc1cccc(F)c1Cn1c(=O)ccc2cnc(Nc3ccc(N4CCN(C)CC4)cc3)nc21" as well?
A. > 6.00

Q. Next up: "CN1CCN(c2ccc(Nc3ncc4ccc(=O)n(Cc5c(Cl)cccc5Br)c4n3)cc2)CC1"
A. > 6.00

Q. Same read-out for "CCCNc1ccc(-c2ccnc(Nc3ccc(N4CCN(C)CC4)cc3)n2)cn1" ?
A. 5.00 to 6.00

Q. Okay, and "O=c1ccc2cnc(Nc3ccc(N4CCNCC4)c(F)c3)nc2n1Cc1ccccc1C(F)(F)F" ?
A. > 6.00

Q. Entry "CN(C)CCOc1ccc(Nc2nccc(-c3ccc(NCCN)nc3)n2)cc1" please
A. 5.00 to 6.00

Q. What about this compound? "CC(C)Oc1ccccc1Cn1c(=O)ccc2cnc(Nc3ccc(N4CCN(C)CC4)cc3)nc21"
A. > 6.00

Q. Also, "COc1cc(Nc2nccc(-c3ccc(NCCN)nc3)n2)cc(OC)c1OC" please.
A. > 6.00

Q. Record: "CN1CCN(c2ccc(Nc3nccc(-c4ccc(N)nc4)n3)cc2)CC1"
A. 5.00 to 6.00

Q. Can you handle "CN1CCN(c2ccc(Nc3ncc4ccc(=O)n([C@H]5CCCc6ccccc65)c4n3)cc2)CC1" next?
A. > 6.00

Q. Next record, please: "CN1CCN(c2ccc(Nc3nccc(-c4ccc(N(C)CCN)nc4)n3)cc2)CC1"
A. 5.00 to 6.00

Q. And then "CN1CCN(c2ccc(Nc3ncc4ccc(=O)n(Cc5ccccc5-c5cc(C(F)(F)F)nn5C)c4n3)cc2)CC1" , what is it?
A. 5.00 to 6.00

Q. Repeat with "O=c1ccc2cnc(Nc3ccc(N4CCNCC4)c(F)c3)nc2n1Cc1ccccc1-c1cccs1"
A. > 6.00

----------
Target: UniProt:O96013
Sequence (O96013 whole entry): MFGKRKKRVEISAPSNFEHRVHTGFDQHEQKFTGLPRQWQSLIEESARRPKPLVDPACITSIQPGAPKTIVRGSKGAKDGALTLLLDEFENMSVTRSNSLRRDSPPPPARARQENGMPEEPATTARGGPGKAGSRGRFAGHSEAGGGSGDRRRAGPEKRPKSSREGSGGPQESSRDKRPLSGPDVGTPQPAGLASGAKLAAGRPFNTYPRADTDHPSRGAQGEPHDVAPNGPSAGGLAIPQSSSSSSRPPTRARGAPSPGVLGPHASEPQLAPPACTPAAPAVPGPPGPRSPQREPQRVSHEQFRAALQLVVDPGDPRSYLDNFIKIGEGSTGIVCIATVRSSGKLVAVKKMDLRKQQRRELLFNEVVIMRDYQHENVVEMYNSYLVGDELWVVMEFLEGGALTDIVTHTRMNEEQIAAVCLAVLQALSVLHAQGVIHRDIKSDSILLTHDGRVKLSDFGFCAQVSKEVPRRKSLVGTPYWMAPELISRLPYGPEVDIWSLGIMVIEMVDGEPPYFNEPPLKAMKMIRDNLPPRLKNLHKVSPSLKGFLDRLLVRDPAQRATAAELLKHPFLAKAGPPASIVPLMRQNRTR
pIC50: −log10 of the molar value.
I'd be grateful if you could share measured pIC50 for these entries.

Q. Item "CN1CCN(c2ccc(Nc3ncc4ccc(=O)n(Cc5c(F)cccc5F)c4n3)cc2)CC1" with UniProt:O96013 - pIC50?
A. 5.00 to 6.00

Q. Now give it for "Cc1cc(Nc2nccc(-c3ccc(NCCN4CCCCC4)nc3)n2)ccc1N1CCN(C)CC1" too.
A. > 6.00

Q. Do the same for "Cc1noc(-c2ccccc2Cn2c(=O)ccc3cnc(Nc4ccc(N5CCNCC5)c(F)c4)nc32)n1" please
A. 5.00 to 6.00

Q. What would you report for "Cc1cccc(F)c1Cn1c(=O)ccc2cnc(Nc3ccc(N4CCN(C)CC4)cc3)nc21" ?
A. > 6.00
